Taken from the supplement of paper PMC10567573.

B1: CAMK2D (parent)
chain: LLKHPNIVRLHDSISEEGFHYLVF

Variants of: B1
Test: protein stability index of a GFP-peptide fusion (GPS, HEK-293T) (PSI 1-6); higher = more stable;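 note: lentivirally expressed fusions sorted by FACS into six bins by GFP to DsRed ratio, PSI derived from sequencing read proportions per bin multiplied by bin number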
Conditions: c terminus: a fixed tail appended
Entry flag: Met if protein stability index reaches 2; Not met if it does not.

INSERT INTO results (variant_annotation, assigned_class) VALUES
  ('L10D', 'Not met'),
  ('I7T', 'Met'),
  ('V23P', 'Not met'),
  ('H11D', 'Met'),
  ('L10M', 'Met'),
  ('R9N', 'Met'),
  ('K3Y', 'Met'),
  ('N6Y', 'Met'),
  ('D12A', 'Met'),
  ('N6T', 'Met'),
  ('S13L', 'Met');
